Tested on: EGFR (human), P00533 [L861Q]
experiment_description: KINOMEscan competition binding
condition_summary: compound 10.0 µM
kinase still bound, per cent of control less than 60% is 1; kinase still bound, per cent of control greater than or equal to 60% is 0.

compound	assigned_label
CN1CCN(c2ccc(C(=O)Nc3ncc4c(n3)N(C)c3ccccc3C(=O)N4C)cc2)CC1	0

Ask: Say whether its kinase still bound, per cent of control is strictly beneath 60%. Entry: COc1cc(N2CCC(N3CCN(C)CC3)CC2)ccc1Nc1ncc2c(n1)N(C1CCCC1)C(C)CC(=O)N2C (stereo not given)
Reply: 1

Ask: For this compound, is kinase still bound, per cent of control lower than 60%? CN1C(=O)c2ccccc2N(C)c2nc(NS(=O)(=O)c3ccc(N)cc3)ncc21
Reply: 0

Ask: Below 60% on kinase still bound, per cent of control? Entry O=C1NC(=O)/C(=C/c2c[nH]c(=O)c(-c3ccc(N4CCNCC4)nc3)c2)S1
Reply: 0

---

What kinase still bound, per cent of control was measured for each of the following?
target_system: JAK2 JH1 catalytic (human)
experiment_description: KINOMEscan competition binding
condition_summary: compound 10.0 µM
Answer with the figure and its unit, nothing else.

Here is how some molecules turned out for kinase still bound, per cent of control.
structure_string	measured_value
O=C1NC(=O)/C(=C/c2c[nH]c(=O)c(-c3ccc(N4CCNCC4)nc3)c2)S1	14%
N=C1NC(=O)/C(=C/c2ccc(-c3cncc4ccccc34)o2)S1	29%
COc1cc(N2CCN(C)CC2)ccc1Nc1ncc2c(n1)N(C)c1sccc1C(=O)N2C	34%

Dear colleague, could you send me kinase still bound, per cent of control for each of the items below? Thanks.
1. CN1C(=O)CCN(C2CCCC2)c2nc(Nc3ccc(N4CCC(O)CC4)cn3)ncc21
2. CN1C(=O)c2ccccc2N(C)c2nc(NS(=O)(=O)c3ccc(N)cc3)ncc21
3. CN1C(=O)c2ccccc2N(C)c2nc(Nc3ccc(N4CCC(O)CC4)cc3)ncc21
4. COc1cc(N2CCC(O)CC2)ccc1Nc1ncc2c(n1)N1CCc3cccc(c31)C(=O)N2C
5. CN1CCN(c2ccc(C(=O)Nc3ncc4c(n3)N(C)c3ccccc3C(=O)N4C)cc2)CC1
6. CN1C(=O)[C@H]2CCC[C@H]2N(C2CCCC2)c2nc(Nc3ccc4ncccc4c3)ncc21

Reply:
6.4%
42%
1.3%
69%
6.2%
15%

---

target_system: UniProtKB Q9BRS2
Sequence (Q9BRS2 whole entry, looked up): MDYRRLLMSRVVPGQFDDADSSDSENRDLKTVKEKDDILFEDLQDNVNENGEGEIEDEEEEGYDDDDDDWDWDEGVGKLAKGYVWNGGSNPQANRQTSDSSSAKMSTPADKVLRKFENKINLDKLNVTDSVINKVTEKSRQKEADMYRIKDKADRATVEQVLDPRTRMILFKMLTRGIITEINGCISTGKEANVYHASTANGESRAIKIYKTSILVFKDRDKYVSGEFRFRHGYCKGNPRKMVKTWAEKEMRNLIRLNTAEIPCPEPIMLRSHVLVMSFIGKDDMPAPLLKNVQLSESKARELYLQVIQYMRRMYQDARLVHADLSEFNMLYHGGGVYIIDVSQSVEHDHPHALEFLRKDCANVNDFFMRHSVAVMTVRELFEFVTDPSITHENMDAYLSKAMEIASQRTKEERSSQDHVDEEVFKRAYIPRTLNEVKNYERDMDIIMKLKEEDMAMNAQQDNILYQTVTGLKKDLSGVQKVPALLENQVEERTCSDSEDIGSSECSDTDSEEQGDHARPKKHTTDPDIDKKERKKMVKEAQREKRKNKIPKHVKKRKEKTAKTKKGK
experiment_description: KINOMEscan competition binding
condition_summary: compound 10.0 µM
Record form. Attribute: kinase still bound, per cent of control. Fill in for each entry.
Answers are plain numbers, in %.

The cases that follow already have their kinase still bound, per cent of control on record.
compound	measure	measured_value
COc1cc(N2CCN(C)CC2)ccc1Nc1ncc2c(n1)N(C)c1ccccc1N(C)C2=O	kinase still bound, per cent of control	78
N=C1NC(=O)/C(=C/c2ccc(-c3ccc(F)cc3O)o2)S1	kinase still bound, per cent of control	23
COc1cc(N2CCN(C)CC2)ccc1Nc1ncc2c(n1)N(c1ccccc1)CCC(=O)N2	kinase still bound, per cent of control	27
COc1cc(N2CCN(C)CC2)ccc1Nc1ncc2c(n1)Nc1ccccc1NC2=O	kinase still bound, per cent of control	67
CS(=O)(=O)Nc1ccc(-c2ncc(/C=C3\SC(=N)NC3=O)s2)cc1	kinase still bound, per cent of control	27
CS(=O)(=O)Nc1ccc(-c2cncc(/C=C3\SC(=N)NC3=O)c2)cc1	kinase still bound, per cent of control	7.8
CN1CCN(c2ccc(C(=O)Nc3ncc4c(n3)N(C)c3ccccc3C(=O)N4C)cc2)CC1	kinase still bound, per cent of control	80
O=C1NC(=O)/C(=C/c2c[nH]c(=O)c(-c3ccc(N4CCNCC4)nc3)c2)S1	kinase still bound, per cent of control	5
Nc1cccc(-c2cc(/C=C3\SC(=O)NC3=O)c[nH]c2=O)c1	kinase still bound, per cent of control	9.8
COc1cc(N2CCC(O)CC2)ccc1Nc1ncc2c(n1)N1CCc3cccc(c31)C(=O)N2C	kinase still bound, per cent of control	100

Report kinase still bound, per cent of control for each item below.
1. N=C1NC(=O)/C(=C/c2ccc(-c3ccccc3O)o2)S1
2. CS(=O)(=O)Nc1ccc(-c2cc(/C=C3\SC(=N)NC3=O)c[nH]c2=O)cc1
3. CS(=O)(=O)Nc1ccc(-c2ccc(/C=C3\SC(=N)NC3=O)o2)cc1
4. O=C1NC(=O)/C(=C/c2c[nH]c(=O)c(-c3ccc(C(=O)Nc4ccc(N5CCNCC5)cc4)cc3)c2)S1
5. CN1C(=O)[C@H]2CCC[C@H]2N(C2CCCC2)c2nc(Nc3ccc4ncccc4c3)ncc21

Reply:
21
11
21
14
7.2

Give measured kinase still bound, per cent of control for every item shown.
1. NS(=O)(=O)c1ccc(-c2ccc(/C=C3\C(=O)Nc4cccc(Br)c43)o2)cc1
2. N=C1NC(=O)/C(=C/c2c[nH]c(=O)c(-c3ccc(N4CCNCC4)nc3)c2)S1
3. COc1cc(N2CCN(C)CC2)ccc1Nc1ncc2c(n1)N(C1CCCC1)C(C)CC(=O)N2 (centres undefined)
4. O=C1NC(=S)S/C1=C\c1ccc(-c2cncc3ccccc23)o1
5. N=C1NC(=O)/C(=C/c2c[nH]c(=O)c(-c3ccc(S(N)(=O)=O)cc3)c2)S1
6. CN1C(=O)[C@H]2CCC[C@H]2N(C2CCCC2)c2nc(Nc3ccc(C(N)=O)cc3)ncc21
7. CSC1=NC(=O)/C(=C/c2c[nH]c(=O)c(-c3ccc(NS(C)(=O)=O)cc3)c2)S1

Reply:
15
10
32
3.7
31
26
7.1
